Quick reference for protein stability index among some variants
B1: NEUROD6 (parent)
chain: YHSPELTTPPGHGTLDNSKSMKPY

Variants of: B1
Experiment: protein stability index of a GFP-peptide fusion (GPS, HEK-293T) (PSI 1-6); higher = more stable;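 also: lentivirally expressed fusions sorted by FACS into six bins by GFP to DsRed ratio, PSI derived from sequencing read proportions per bin multiplied by bin number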
Condition Set: c terminus: a fixed tail appended

1. G11E; 2.67
2. G11L; 2.31
3. P10T; 1.7
4. Y24H; 2.45

// moving on: another record for protein stability index
Q: Could you tell me which protein stability index is on file for H12I ?
Ans: 2.01
